tested on: Mus musculus; assay: Compound was evaluated for antitumor activity against L1210 leukemia in mice and LD10 was determined 24 hour after subcutaneous administration in 10 E 6 cells implanted intraperitoneally.; type: ADME, organism-based; settings: in vivo, sc
LD10 under 0.8 mg/kg gets 1, anything at or over 0.8 mg/kg gets -1.

Is it true that LD10 reported for CCC(Cc1ccc2nc(N)nc(N)c2n1)c1ccc(C(=O)NC(CCC(=O)O)C(=O)O)cc1 (stereo not given) is less than 0.8 mg/kg?
-1

Criterion: LD10 strictly below 0.8 mg/kg. Is it met by Nc1nc(N)c2nc(CCc3ccc(C(=O)NC(CCC(=O)O)C(=O)O)cc3)ccc2n1 (stereo not given) ?
1

Lab note: confirm whether the reported LD10 for this molecule is below 0.8 mg/kg, equality not counting. molecule: CC(Cc1ccc2nc(N)nc(N)c2n1)c1ccc(C(=O)NC(CCC(=O)O)C(=O)O)cc1 (stereo not given)
1

Answer whether the molecule CCCC(Cc1ccc2nc(N)nc(N)c2n1)c1ccc(C(=O)NC(CCC(=O)O)C(=O)O)cc1 (stereo not given) has LD10 strictly less than 0.8 mg/kg
-1

Problem: For the molecule CN(Cc1cnc2nc(N)nc(N)c2n1)c1ccc(C(=O)N[C@@H](CCC(=O)O)C(=O)O)cc1 [METHOTREXATE] , is LD10 under 0.8 mg/kg?
-1
